Documented IC50 across a set of molecules
Test: Antiandrogen activity against androgen receptor in androgen-dependent mouse SC3 cells assessed as inhibition of testosterone-induced cell proliferation by WST1 assay

See these solved cases before continuing.
CCC(CC)(c1ccc(OCC(=O)C(C)(C)Cc2ccccc2)c(C)c1)c1ccc(OC[C@@H](O)CO)c(C)c1 ... > 10 µM
CCC(CC)(c1ccc(OC[C@@H](O)CO)c(C)c1)c1ccc(O[C@@H]2CN(C(=O)OCc3ccccc3)C[C@@H]2O)c(C)c1 ... > 30 µM
CCC(CC)(c1ccc(OCC(O)C23CC4CC(CC(C4)C2)C3)c(C)c1)c1ccc(OC[C@@H](O)CO)c(C)c1 (some centres undefined) ... > 10 µM

Entry CCC(CC)(c1ccc(OC[C@@H](O)CO)c(C)c1)c1ccc(O[C@@H]2CN(Cc3ccccc3)C[C@@H]2O)c(C)c1 : reported IC50 = ?
> 10 µM

* * *

Assay: Vitamin-D activity at VDR receptor in human HL60 cells assessed as induction of cell differentiation by NBT reduction assay
pEC50: −log10 of the molar value.
Value Type: pEC50

CCC(CC)(c1ccc(OCC(=O)C(C)(C)C)c(C)c1)c1ccc(OCC(O)CO)c(C)c1 (centres undefined) ... 7.05

Give the measured pEC50 of CCC(CC)(c1ccc(OC[C@@H](O)CO)c(C)c1)c1ccc(O[C@@H]2CN(Cc3ccccc3)C[C@@H]2O)c(C)c1 .
< 4.52

Return reported pEC50; argument: CCC(CC)(c1ccc(OCC(=O)C23CC4CC(CC(C4)C2)C3)c(C)c1)c1ccc(OC[C@@H](O)CO)c(C)c1
< 4.52

Which pEC50 value belongs to CCC(CC)(c1ccc(OCC(=O)C(C)(C)CCCc2ccccc2)c(C)c1)c1ccc(OC[C@@H](O)CO)c(C)c1 ?
< 4.52

* * *

Assay: Antiandrogen activity against androgen receptor in androgen-dependent mouse SC3 cells assessed as inhibition of testosterone-induced cell proliferation by WST1 assay
The molecules listed here are annotated with their IC50.

Field: example entries. Status: answers known.
CCC(CC)(c1ccc(OCC(=O)C(C)(C)CCCCc2ccccc2)c(C)c1)c1ccc(OC[C@@H](O)CO)c(C)c1 ... > 30 µM
CCC(CC)(c1ccc(OCC(O)C(C)(C)CCCCc2ccccc2)c(C)c1)c1ccc(OC[C@@H](O)CO)c(C)c1 (stereo not given in full) ... > 10 µM
CCC(CC)(c1ccc(OCC(=O)C(C)(C)Cc2ccc3ccccc3c2)c(C)c1)c1ccc(OC[C@@H](O)CO)c(C)c1 ... > 30 µM
CCC(CC)(c1ccc(OCC(O)C(C)(C)Cc2ccc3ccccc3c2)c(C)c1)c1ccc(OC[C@@H](O)CO)c(C)c1 (stereo not given in full) ... > 10 µM

Could you now look at the following molecule, please?
Can you look up the measured IC50 of CCC(CC)(c1ccc(OCC(=O)C23CC4CC(CC(C4)C2)C3)c(C)c1)c1ccc(OC[C@@H](O)CO)c(C)c1 for me?
> 30 µM

Values compiled from BindingDB's records for doi:10.1016/j.bmcl.2010.09.011.
